# Tested on: Pseudomonas aeruginosa
# ASSAY_COMMENT: Antibacterial activity against Pseudomonas aeruginosa
# Type: functional
Reported MIC values are given for each entry in this list.

These recorded examples may help you get a feel for the data.
>>> value_reported("CCCCCCCCC[n+]1cccc(-c2nc(-c3ccccc3)c3c(=O)n(CCCCCC)c4ccccc4n23)c1.[Br-]")
"> 500 µg/mL"
>>> value_reported("N#Cc1ccc2ccc(=O)n(CCN3CC[C@H](NCc4cc5c(cn4)OCCO5)[C@H](F)C3)c2c1")
"> 8 µg/mL"
>>> value_reported("CCCCCCCCC[n+]1cccc(-c2nc(-c3ccccc3)c3c(=O)n(CCCCCC)c4ccccc4n23)c1.[I-]")
"> 500 µg/mL"
>>> value_reported("CCCCCCCCCn1c(=O)c2c(-c3ccccc3)nc(-c3ccc[n+](CCCCCCCCC)c3)n2c2ccccc21.[Br-]")
"> 500 µg/mL"

Switching to the query record.
Ask: Give reported MIC for CCCCCCCCCn1c(=O)c2c(-c3ccccc3)nc(-c3ccc[n+](CCCCCCCCC)c3)n2c2ccccc21.[I-] (Pseudomonas aeruginosa)
Result: > 500 µg/mL
